test system: T. cruzi bloodstream trypomastigotes; experiment: In vivo infectivity in Swiss mice of blood samples infected with bloodstream trypomastigotes pre-treated with AIAs or CV; parameters: species or system Trypanosoma cruzi; conditions: experiment # 1; pre-treatment at 96 μM; cleared mice/total
measured quantity: Clearance of the Parasitemia

Example results:
> print(dat)
                                   molecule             measured.quantity  endpoint.value
1  CC(C)Oc1cc(NC(=N)c2ccccn2)ccc1-c1ccc(-c2ccc(NC(=N)c3ccccn3)cc2OC(C)C)o1  Clearance of the Parasitemia             0/5
2  CC(C)Oc1cc(NC(=N)c2ncccn2)ccc1-c1ccc(-c2ccc(NC(=N)c3ncccn3)cc2OC(C)C)o1  Clearance of the Parasitemia             2/5
3  CN(C)c1ccc(C(=C2C=CC(=[N+](C)C)C=C2)c2ccc(N(C)C)cc2)cc1 [CV, crystal violet, reference compound]  Clearance of the Parasitemia             0/5

Query: Which Clearance of the Parasitemia value belongs to `CCOc1cc(NC(=N)c2ccccn2)ccc1-c1ccc(-c2ccc(NC(=N)c3ccccn3)cc2OCC)o1` ?
Reply: 0/5

====

test system: T. cruzi bloodstream trypomastigotes; experiment: In vivo infectivity in Swiss mice of blood samples infected with bloodstream trypomastigotes pre-treated with AIAs or CV; set-up: species or system Trypanosoma cruzi; settings: experiment # 2; pre-treatment at 96 μM; cleared mice/total
Exercise: for every item that follows, state its recorded Clearance of the Parasitemia.

Example results:
> print(dat)
                                   compound             measured.quantity  endpoint.value
1  CCOc1cc(NC(=N)c2ccccn2)ccc1-c1ccc(-c2ccc(NC(=N)c3ccccn3)cc2OCC)o1  Clearance of the Parasitemia             0/5
2  CC(C)Oc1cc(NC(=N)c2ccccn2)ccc1-c1ccc(-c2ccc(NC(=N)c3ccccn3)cc2OC(C)C)o1  Clearance of the Parasitemia             0/5
3  CN(C)c1ccc(C(=C2C=CC(=[N+](C)C)C=C2)c2ccc(N(C)C)cc2)cc1 [CV, crystal violet, reference compound]  Clearance of the Parasitemia             0/5

Now for a further compound.
Query: Which Clearance of the Parasitemia value belongs to `CC(C)Oc1cc(NC(=N)c2ncccn2)ccc1-c1ccc(-c2ccc(NC(=N)c3ncccn3)cc2OC(C)C)o1` ?
Reply: 4/5
